Measured values drawn from the supplement of paper PMC7695840 for this set.

I'd be grateful if you could share measured pIC50 for these entries.
Tested on: Staphylococcus aureus MW2 delta-mecA (mecA-)
Assay explanation: IC50 (growth, competition assay)
Study conditions: fluorescent label: DsRed; cefoxitin: subinhibitory
Structures can show the parent of a compound that is named as a salt.
Keep it numeric: pIC50 is minus log10 of the concentration in mol/L.

Q: GET /values?readout=pIC50&item= COC1=C(OC)C(=O)C(CCCCCCCCCCO)=C(C)C1=O
A: 4.81

Q: GET /values?readout=pIC50&item= CC(=O)N1CCN(c2ccc(OCC3COC(Cn4ccnc4)(c4ccc(Cl)cc4Cl)O3)cc2)CC1 (configuration not stated)
A: 4.30

Q: GET /values?readout=pIC50&item= CC(C)(C)C#Cc1cc(N(C(=O)[C@H]2CC[C@H](C)CC2)[C@H]2CC[C@H](O)CC2)c(C(=O)O)s1
A: 4.78

Q: GET /values?readout=pIC50&item= C=CCCCCCCCCCCCc1ccco1
A: 4.79

Q: GET /values?readout=pIC50&item= CCn1cc(C(=O)O)c(=O)c2cc3c(cc21)OCO3 [Oxolinic acid]
A: 4.82

Q: GET /values?readout=pIC50&item= CN(C)C(=O)C(CCN1CCC(O)(c2ccc(Cl)cc2)CC1)(c1ccccc1)c1ccccc1 [Loperamide hydrochloride]
A: 4.50

Q: GET /values?readout=pIC50&item= CC(C)c1cccc(C(C)C)c1N1C(=O)c2ccc(O)cc2C1=O
A: 4.39

Q: GET /values?readout=pIC50&item= O=C(O)c1ccc(-n2nc(-c3ccccc3O)nc2-c2ccccc2O)cc1 [Deferasirox (Exjade)]
A: 4.65

Q: GET /values?readout=pIC50&item= O=c1cc(-c2ccc(O)c(O)c2)oc2cc(O)cc(O)c12
A: 4.56

Q: GET /values?readout=pIC50&item= O=c1c(O)c(-c2ccc(O)c(O)c2)oc2cc(O)cc(O)c12 [Quercetin dihydrate (Sophoretin)]
A: 4.73
